Catalogue of viability, T/C readings, one per entry.
- Test system: 496974-208-R-J2-PDC complex spheroids, growth % test/control
- assayText: Anticancer human tumor 496974-208-R-J2-PDC patient-derived pancreatic carcinoma cell line growth inhibition [CLK]
- assayContext: second compound 0.1 µM; first compound 0.1 µM; stronger effect = lower value
Answer format: numeric, % implied, no suffix.

molecule	viability, T/C [%]
CCN1CCN(Cc2ccc(Nc3ncc(F)c(-c4cc(F)c5nc(C)n(C(C)C)c5c4)n3)nc2)CC1 + CNC(=O)c1ccc(Nc2nc(OC3CCCC3)c3c(-c4ccc5nc(C)oc5c4)c[nH]c3n2)c(OC)c1	84.2
O=c1[nH]cc(F)c(=O)[nH]1 + CN1CCN(c2cc(C(=O)Nc3cc4cc(-c5cnn(C)c5)ccc4cn3)ccn2)CC1	83.7
O=c1[nH]cc(F)c(=O)[nH]1 + CNC(=O)c1ccc(Nc2nc(OC3CCCC3)c3c(-c4ccc5nc(C)oc5c4)c[nH]c3n2)c(OC)c1	83.1
CCCS(=O)(=O)Nc1ccc(F)c(C(=O)c2c[nH]c3ncc(-c4ccc(Cl)cc4)cc23)c1F + CNC(=O)c1ccc(Nc2nc(OC3CCCC3)c3c(-c4ccc5nc(C)oc5c4)c[nH]c3n2)c(OC)c1	47.6

Problem: Look up 496974-208-R-J2-PDC complex spheroids, growth % test/control data: viability, T/C of CC(=O)O[C@H]1C(=O)[C@@]2(C)[C@H]([C@H](OC(=O)c3ccccc3)[C@]3(O)C[C@H](OC(=O)[C@H](O)[C@@H](NC(=O)c4ccccc4)c4ccccc4)C(C)=C1C3(C)C)[C@]1(OC(C)=O)CO[C@@H]1C[C@@H]2O + CN1CCN(c2cc(C(=O)Nc3cc4cc(-c5cnn(C)c5)ccc4cn3)ccn2)CC1 , then report it.
Solution: 25.9

---

- Test system: 496974-208-R-J2-PDC complex spheroids, growth % test/control
- assayText: Anticancer human tumor 496974-208-R-J2-PDC cell line growth inhibition [CLK];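 further: spheroids exposed to the drugs for 7 days before readout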;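 on viability, T/C: 100% = DMSO vehicle control wells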
- assayContext: second compound 0.316 µM; first compound 1 µM; stronger effect = lower value
Lab note: cut-off is 5%. Strictly less in viability, T/C is Satisfied. Exactly 5% or more is Not satisfied.

compound	labelClass
COc1c(OCCCN2CCOCC2)ccc2c3n(c(=NC(=O)c4cnc(N)nc4)nc12)CCN3 + CNC(=O)c1ccc(Nc2nc(OC3CCCC3)c3c(-c4ccc5nc(C)oc5c4)c[nH]c3n2)c(OC)c1	Not satisfied
Nc1ccn(C2OC(CO)C(O)C2(F)F)c(=O)n1 (centres undefined) + CNC(=O)c1ccc(Nc2nc(OC3CCCC3)c3c(-c4ccc5nc(C)oc5c4)c[nH]c3n2)c(OC)c1	Not satisfied
C#Cc1c(F)ccc2cc(O)cc(-c3ncc4c(N5CC6CCC(C5)N6)nc(OCC56CCCN5CC(F)C6)nc4c3F)c12 (centres undefined) + CNC(=O)c1ccc(Nc2nc(OC3CCCC3)c3c(-c4ccc5nc(C)oc5c4)c[nH]c3n2)c(OC)c1	Not satisfied

Problem: Below 5% on viability, T/C? Entry O=c1[nH]cc(F)c(=O)[nH]1 + CN1CCN(c2cc(C(=O)Nc3cc4cc(-c5cnn(C)c5)ccc4cn3)ccn2)CC1
Solution: Not satisfied

Problem: Below 5% on viability, T/C? Entry CC1COCCN1c1cc(C2(S(C)(=N)=O)CC2)nc(-c2ccnc3[nH]ccc23)n1 (centres undefined) + CN1CCN(c2cc(C(=O)Nc3cc4cc(-c5cnn(C)c5)ccc4cn3)ccn2)CC1
Solution: Not satisfied

Problem: Below 5% on viability, T/C? Entry CC1COCCN1c1cc(C2(S(C)(=N)=O)CC2)nc(-c2ccnc3[nH]ccc23)n1 (centres undefined) + CNC(=O)c1ccc(Nc2nc(OC3CCCC3)c3c(-c4ccc5nc(C)oc5c4)c[nH]c3n2)c(OC)c1
Solution: Not satisfied

Problem: Below 5% on viability, T/C? Entry CC(Nc1ccc2c(c1)OCCn1cc(N3C(=O)OCC3C(F)F)nc1-2)C(N)=O (centres undefined) + CN1CCN(c2cc(C(=O)Nc3cc4cc(-c5cnn(C)c5)ccc4cn3)ccn2)CC1
Solution: Satisfied

Problem: Below 5% on viability, T/C? Entry CC(=O)O[C@H]1C(=O)[C@@]2(C)[C@H]([C@H](OC(=O)c3ccccc3)[C@]3(O)C[C@H](OC(=O)[C@H](O)[C@@H](NC(=O)c4ccccc4)c4ccccc4)C(C)=C1C3(C)C)[C@]1(OC(C)=O)CO[C@@H]1C[C@@H]2O + CN1CCN(c2cc(C(=O)Nc3cc4cc(-c5cnn(C)c5)ccc4cn3)ccn2)CC1
Solution: Satisfied

---

Catalogue of IC50 readings, one per entry.
- Tested on: 496974-208-R-J2-PDC complex spheroids, growth % test/control
- assayText: Anticancer human tumor 496974-208-R-J2-PDC cell line growth inhibition [CLK];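 further: spheroids exposed to the drugs for 7 days before readout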
- assayContext: curve of first compound; second compound 0.1 µM
Answer format: numeric, µM implied, no suffix.

compound	IC50, µM
COc1cccc2c1C(=O)c1c(O)c3c(c(O)c1C2=O)CC(O)(C(=O)CO)CC3OC1CC(N)C(O)C(C)O1 (stereo not given) + CN1CCN(c2cc(C(=O)Nc3cc4cc(-c5cnn(C)c5)ccc4cn3)ccn2)CC1	0.0785
CCCS(=O)(=O)Nc1ccc(F)c(C(=O)c2c[nH]c3ncc(-c4ccc(Cl)cc4)cc23)c1F + CN1CCN(c2cc(C(=O)Nc3cc4cc(-c5cnn(C)c5)ccc4cn3)ccn2)CC1	8.61

The record that follows has no IC50 shown yet.
Problem: Tell me its IC50 given NC(=O)C(=Cn1cnc(-c2cc(C(F)(F)F)cc(C(F)(F)F)c2)n1)c1cncnc1 + CNC(=O)c1ccc(Nc2nc(OC3CCCC3)c3c(-c4ccc5nc(C)oc5c4)c[nH]c3n2)c(OC)c1 as the entry.
Solution: 0.0816

---

- System: 496974-208-R-J2-PDC complex spheroids, growth % test/control
- assayText: Anticancer human tumor 496974-208-R-J2-PDC cell line growth inhibition [CLK];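 further: spheroids exposed to the drugs for 7 days before readout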
- assayContext: curve of first compound; second compound 0.1 µM
endpointName: pIC50
Notebook: values listed as pIC50 are -log10 of the concentration (mol/L).

Example results:
molecule	pIC50
CCc1c2c(nc3ccc(O)cc13)-c1cc3c(c(=O)n1C2)COC(=O)[C@]3(O)CC + CNC(=O)c1ccc(Nc2nc(OC3CCCC3)c3c(-c4ccc5nc(C)oc5c4)c[nH]c3n2)c(OC)c1	7.90
CC1(C)CCC(CN2CCN(c3ccc(C(=O)NS(=O)(=O)c4ccc(NCC5CCOCC5)c([N+](=O)[O-])c4)c(Oc4cnc5[nH]ccc5c4)c3)CC2)=C(c2ccc(Cl)cc2)C1 + CNC(=O)c1ccc(Nc2nc(OC3CCCC3)c3c(-c4ccc5nc(C)oc5c4)c[nH]c3n2)c(OC)c1	5.15
COc1ccc([C@@H](O)c2cc(-c3ncnc4cc(N5CCOCC5)ccc34)c(F)cc2Cl)nn1 + CN1CCN(c2cc(C(=O)Nc3cc4cc(-c5cnn(C)c5)ccc4cn3)ccn2)CC1	5.46
Nc1ccn(C2OC(CO)C(O)C2(F)F)c(=O)n1 (stereo unspecified) + CN1CCN(c2cc(C(=O)Nc3cc4cc(-c5cnn(C)c5)ccc4cn3)ccn2)CC1	6.59
CC1COCCN1c1cc(C2(S(C)(=N)=O)CC2)nc(-c2ccnc3[nH]ccc23)n1 (stereo unspecified) + CNC(=O)c1ccc(Nc2nc(OC3CCCC3)c3c(-c4ccc5nc(C)oc5c4)c[nH]c3n2)c(OC)c1	5.26
CCCS(=O)(=O)Nc1ccc(F)c(C(=O)c2c[nH]c3ncc(-c4ccc(Cl)cc4)cc23)c1F + CNC(=O)c1ccc(Nc2nc(OC3CCCC3)c3c(-c4ccc5nc(C)oc5c4)c[nH]c3n2)c(OC)c1	5.20

Problem: Look up 496974-208-R-J2-PDC complex spheroids, growth % test/control data: pIC50 of CC(CO)NC(=O)c1cc(-c2ccc(Cl)cc2)nn(-c2cnn(C)c2)c1=O (stereo unspecified) + CNC(=O)c1ccc(Nc2nc(OC3CCCC3)c3c(-c4ccc5nc(C)oc5c4)c[nH]c3n2)c(OC)c1 , then report it.
Solution: 5.18

Problem: Look up 496974-208-R-J2-PDC complex spheroids, growth % test/control data: pIC50 of CC(C)CC(NC(=O)C(Cc1ccccc1)NC(=O)c1cnccn1)B(O)O (stereo unspecified) + CN1CCN(c2cc(C(=O)Nc3cc4cc(-c5cnn(C)c5)ccc4cn3)ccn2)CC1 , then report it.
Solution: 8.42

Problem: Look up 496974-208-R-J2-PDC complex spheroids, growth % test/control data: pIC50 of COc1c(OCCCN2CCOCC2)ccc2c3n(c(=NC(=O)c4cnc(N)nc4)nc12)CCN3 + CN1CCN(c2cc(C(=O)Nc3cc4cc(-c5cnn(C)c5)ccc4cn3)ccn2)CC1 , then report it.
Solution: 7.88
